target: ABHD12 (Mus musculus); construct: from tissue; host or cells: brain membrane proteome; experiment: Gel-based competitive ABPP, JJH350 probe vs brain membrane proteome; assay type: biochemical; settings: 10 μM compound, read-out: % Inhibition @ 10 μM (ABPP gel_JJH350 probe vs brain mem)
Sequence (Q99LR1 whole entry): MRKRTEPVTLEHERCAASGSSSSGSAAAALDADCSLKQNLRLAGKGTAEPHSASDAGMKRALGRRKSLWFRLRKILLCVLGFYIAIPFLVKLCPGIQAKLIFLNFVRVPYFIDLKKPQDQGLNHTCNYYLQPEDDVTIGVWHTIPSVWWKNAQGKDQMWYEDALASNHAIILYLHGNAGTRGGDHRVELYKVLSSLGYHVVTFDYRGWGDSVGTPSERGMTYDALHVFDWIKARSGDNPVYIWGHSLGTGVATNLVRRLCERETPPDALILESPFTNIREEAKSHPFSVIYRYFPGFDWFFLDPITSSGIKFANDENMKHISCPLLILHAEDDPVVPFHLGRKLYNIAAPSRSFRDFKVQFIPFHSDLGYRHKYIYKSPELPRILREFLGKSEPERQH
Measured inhibition at 10 µM, listed per entry for reference.
measured.parameter: inhibition at 10 µM

>>> df
                            smiles_notation  experimental_result
0  FC(F)(F)c1ccccc1Oc1ccnc(N2CCC(NC(=S)Nc3cccnc3)CC2)c1                ≥ 75%
1  O=C(Nc1cccnc1)NC1CCN(c2ncc(C(F)(F)F)cc2Cl)CC1            25 to 50%
2  S=C(Nc1cccnc1)NC1CCN(c2cc(OC3CCCCC3)ccn2)CC1                ≥ 75%
3  FC(F)(F)c1cc(Cl)nc(N2CCC(NC(=S)Nc3cccnc3)CC2)c1                ≥ 75%
4  FC(F)(F)Oc1ccc(Oc2cc(N3CCC(NC(=S)Nc4cccnc4)CC3)nc(C(F)(F)F)c2)cc1             0 to 25%
5  FC(F)(F)Oc1ccc(N2CCC(NC(=S)Nc3cccnc3)CC2)nc1                ≥ 75%
6  FC(F)(F)Oc1ccc(Oc2ccnc(N3CCC(NC(=S)Nc4cccnc4)CC3)c2C(F)(F)F)cc1                ≥ 75%
7  FC(F)(F)c1cnc(NCCCCCNC(=S)Nc2cccnc2)c(Cl)c1                ≥ 75%
8  S=C(Nc1cccnc1)NC1CCN(c2cc(-c3ccccc3)ccn2)CC1            25 to 50%
9      Fc1ccc(N2CCC(NC(=S)Nc3cccnc3)CC2)nc1                ≥ 75%
